# measurement target: GDP-bound KRAS protein (aa 1-169), containing both G12C and C118A amino acid substitutions (Homo sapiens, UniProt P01116, C118A/G12C)
# Sequence (P01116 1-169 isoform P01116-2 G12C/C118A): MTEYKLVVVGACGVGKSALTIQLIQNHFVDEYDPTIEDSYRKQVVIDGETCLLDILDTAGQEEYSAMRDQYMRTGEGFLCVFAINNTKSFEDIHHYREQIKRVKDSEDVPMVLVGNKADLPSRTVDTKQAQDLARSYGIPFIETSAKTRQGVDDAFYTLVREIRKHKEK
# assay comment: Coupled nucleotide exchange assay (SOS-mediated, AlphaScreen)
# Type: biochemical
# details: 5 min compound pre-incubation
Give measured Coupled exchange IC50 (5 min) for each item. Keep answers brief.

Prompt line: Requested field: Coupled exchange IC50 (5 min). Item: C=CC(=O)N1CCN(c2nc(=O)n(-c3c(C)ccnc3C(C)C)c3nc(-c4cc(O)ccc4F)c(F)cc23)[C@@H](C)C1 (single isomer, unassigned) [Example 58-5-2]
Response line: 0.216 | nda μM

Prompt line: Requested field: Coupled exchange IC50 (5 min). Item: C=CC(=O)N1CCN(c2nc(=O)n(-c3ccccc3C(C)C)c3nc(-c4cc(F)ccc4O)c(Cl)cc23)[C@@H](C)C1 (single isomer, unassigned) [Example 54-78-1]
Response line: 7.26 | nda μM

Prompt line: Requested field: Coupled exchange IC50 (5 min). Item: C=CC(=O)N1CCN(c2nc(=O)n(-c3ncccc3CC)c3nc(-c4c(O)cccc4F)c(Cl)cc23)[C@@H](C)C1
Response line: 0.149 | nda μM

Prompt line: Requested field: Coupled exchange IC50 (5 min). Item: C=CC(=O)N1CCN(c2nc(=O)n(-c3c(C)cccc3CC)c3nc(-c4ccccc4F)c(F)cc23)[C@@H](C)C1 (single isomer, unassigned) [Example 57-13-2]
Response line: 8.13 | nda μM

Prompt line: Requested field: Coupled exchange IC50 (5 min). Item: C=CC(=O)N1CCN(c2nc(=O)n(-c3ccccc3C3CCC3)c3nc(-c4ccccc4F)c(Cl)cc23)[C@@H](C)C1 (single isomer, unassigned) [Example 54-12-2]
Response line: 0.949 | nda μM

Prompt line: Requested field: Coupled exchange IC50 (5 min). Item: C=CC(=O)N1CCN(c2nc(=O)n(-c3c(C4CC4)ccnc3C)c3nc(-c4ccccc4F)c(F)cc23)[C@@H](C)C1 (single isomer, unassigned) [Example 58-20-2]
Response line: 0.807 | nda μM

Prompt line: Requested field: Coupled exchange IC50 (5 min). Item: C=CC(=O)N1CCN(c2nc(=O)n(-c3nccnc3CC)c3nc(-c4ccccc4F)c(Cl)cc23)[C@@H](C)C1
Response line: 0.651 | nda μM

Prompt line: Requested field: Coupled exchange IC50 (5 min). Item: C=CC(=O)N1CCN(c2nc(=O)n(-c3c(C)ccnc3C(C)C)c3nc(-c4c(O)cccc4Cl)c(F)cc23)[C@@H](C)C1 (single isomer, unassigned) [Example 58-9-1]
Response line: 0.046 | nda μM

Prompt line: Requested field: Coupled exchange IC50 (5 min). Item: C=CC(=O)N1CCN(c2nc(=O)n(-c3ccccc3CC(F)(F)F)c3nc(-c4c(O)cccc4F)c(Cl)cc23)[C@@H](C)C1
Response line: 0.318 | nda μM

Prompt line: Requested field: Coupled exchange IC50 (5 min). Item: C=CC(=O)N1CCN(c2nc(=O)n(-c3c(C)ccnc3C(C)C)c3nc(-c4c(O)cccc4F)c(F)cc23)C[C@H]1C (single isomer, unassigned)
Response line: 0.493 | nda μM

Prompt line: Requested field: Coupled exchange IC50 (5 min). Item: C=CC(=O)N1CCN(c2nc(=O)n(-c3ccccc3C(C)C)c3nc(-c4cc(O)ccc4Cl)c(Cl)cc23)[C@@H](C)C1 [Example 54-90]
Response line: 0.105 | nda μM
